target: human CB2 receptor (Homo sapiens); experiment: FLIPR membrane potential assay; type: cell-based; conditions: hCB2 EC50, AtT-20-CB2 cells, membrane potential
Sequence (P34972 whole entry): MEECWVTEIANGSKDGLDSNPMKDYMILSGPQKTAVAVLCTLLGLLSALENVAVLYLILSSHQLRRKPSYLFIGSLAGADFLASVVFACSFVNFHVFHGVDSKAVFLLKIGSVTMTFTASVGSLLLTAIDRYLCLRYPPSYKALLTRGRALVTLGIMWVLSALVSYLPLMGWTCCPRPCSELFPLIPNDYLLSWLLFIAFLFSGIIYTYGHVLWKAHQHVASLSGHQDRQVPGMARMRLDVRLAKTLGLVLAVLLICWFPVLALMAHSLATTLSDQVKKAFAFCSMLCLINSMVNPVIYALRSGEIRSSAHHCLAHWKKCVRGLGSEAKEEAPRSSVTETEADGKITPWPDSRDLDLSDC
Measurement Label: pEC50
Remember, pEC50 is on a log scale: it is -log10 of the molar concentration.

[
  {
    "Molecule": "CCCCCn1nc2ccccc2c1C(=O)N[C@H](C(N)=O)C(C)C [compound 9]",
    "Recorded Measurement": 5.39
  }
]

Which pEC50 value belongs to CC(C)[C@H](NC(=O)c1nn(CCCCCF)c2ccccc12)C(N)=O [compound 6] ?
8.25

Need pEC50 of CC(C)[C@H](NC(=O)c1nn(Cc2ccc(F)cc2)c2ccccc12)C(N)=O [compound 4] , thanks.
8.17

pEC50 for CC(C)[C@H](NC(=O)c1c2ccccc2nn1CCCCCF)C(N)=O [compound 10] ?
5.53

State the recorded pEC50 for this entry: CCCCCn1nc(C(=O)N[C@H](C(N)=O)C(C)C)c2ccccc21 [compound 5]
8.00
